- Test system: OVCAR-8 ovarian
- procedure summary: NCI tumour cell line growth inhibition, 48 h
measurement kind: TGI

Look over these answered cases.
1. Cc1nc(-c2nc(C)c(C(=O)NNC(=O)C[n+]3ccccc3)s2)sc1C(=O)NNC(=O)C[n+]1ccccc1 :: > 100 µM
2. O=C1NC2(CCN(CCc3ccccc3)CC2)Oc2ccccc21 :: > 100 µM
3. Br[Se]c1ccccn1 :: 36 µM
4. O=C1c2c(F)c(F)c(F)c(F)c2C(=O)N1c1ccc(F)cc1F :: 50.8 µM
5. NCCNCCNCCN :: > 100 µM
6. CCOC(=O)c1ccc(-c2cc(C)no2)[nH]1 :: > 100 µM
7. N=c1oc2ccccc2cc1C(=O)NC12CC3CC(CC(C3)C1)C2 :: > 100 µM
8. Cc1ccc(S(=O)(=O)N2C3C=CC(C3)[C@@H]2C(Cl)(Cl)Cl)cc1 (stereo not given in full) :: > 63.3 µM
9. COc1ccc(C2=CC(C(C)=C(C(N)=O)C(N)=O)C=C(c3ccc(Br)cc3)C2)c(OC)c1 (stereo not given) :: > 100 µM

Please find the next compound below.
Check the records and state TGI for `CC#Cc1ccc(-c2ccccc2)s1` > 100 µM
